All values here come from paper PMC7774954.

Tested on: GRIP1-4
Assay: Holdup assay, GRIP1-4
Format: binding, human
*1 amine or outer side, *2 acyl side, *3 side chain or, on linkers, in order; H or OH if unused. Where a SMILES comes first, the peptide text is derived from it. The star is where a group is joined. X1 = O=C(CCCC[C@@H]1SC[C@@H]2NC(=O)N[C@@H]21)NCCCOCCOCCOCCCN*; Suc = O=C(CCC(=O)[*:2])[*:1]
endpoint-label: BI
Could you respond with only the numeric value?

State the recorded BI for this entry: CC[C@H](C)[C@H](NC(=O)[C@H](CCC(N)=O)NC(=O)[C@@H](NC(=O)[C@H](Cc1c[nH]cn1)NC(=O)[C@H](CCC(N)=O)NC(=O)[C@H](CC(=O)O)NC(=O)[C@H](CCC(=O)O)NC(=O)[C@H](CC(=O)O)NC(=O)CCC(=O)NCCCOCCOCCOCCCNC(=O)CCCC[C@@H]1SC[C@@H]2NC(=O)N[C@@H]21)[C@@H](C)O)C(=O)N[C@H](C(=O)N[C@@H](CCCNC(=N)N)C(=O)N[C@H](C(=O)O)C(C)C)[C@@H](C)O [PTEN_KR] ({X1-Suc}-DEDQHTQITRV-OH) -0.042

State the recorded BI for this entry: CC[C@H](C)[C@H](NC(=O)[C@H](CCC(N)=O)NC(=O)[C@@H](NC(=O)[C@H](Cc1c[nH]cn1)NC(=O)[C@H](CCC(N)=O)NC(=O)[C@H](CC(=O)O)NC(=O)[C@H](CCC(=O)O)NC(=O)[C@H](CC(=O)O)NC(=O)[C@H](Cc1ccccc1)NC(=O)[C@@H]1CCCN1C(=O)CCC(=O)NCCCOCCOCCOCCCNC(=O)CCCC[C@@H]1SC[C@@H]2NC(=O)N[C@@H]21)[C@@H](C)O)C(=O)N[C@H](C(=O)N[C@@H](CCCCN)C(=O)N[C@H](C(=O)O)C(C)C)[C@@H](C)O [PTEN_13] ({X1-Suc}-PFDEDQHTQITKV-OH) -0.039

State the recorded BI for this entry: `CC[C@H](C)[C@H](NC(=O)[C@H](CCC(N)=O)NC(=O)[C@@H](NC(=O)[C@H](Cc1c[nH]cn1)NC(=O)[C@H](CCC(N)=O)NC(=O)[C@H](CC(=O)O)NC(=O)[C@H](CCC(=O)O)NC(=O)[C@H](CC(=O)O)NC(=O)CCC(=O)NCCCOCCOCCOCCCNC(=O)CCCC[C@@H]1SC[C@@H]2NC(=O)N[C@@H]21)[C@@H](C)O)C(=O)N[C@H](C(=O)N[C@@H](CCCCNC(C)=O)C(=O)N[C@H](C(=O)O)C(C)C)[C@@H](C)O` 0.038

====

Test system: 266 human PDZ domains (PDZome)
Assay: Holdup assay (chromatographic retention, PDZome-binding profile, BI)
Parameters: key: binding intensity: 0.00 = no binding, 1.00 = maximal binding
Settings: maximum over PDZome
endpoint-label: Max BI
Could you respond with only the numeric value?

State the recorded Max BI for this entry: `CC[C@H](C)[C@H](NC(=O)[C@H](CCC(N)=O)NC(=O)[C@@H](NC(=O)[C@H](Cc1c[nH]cn1)NC(=O)[C@H](CCC(N)=O)NC(=O)[C@H](CC(=O)O)NC(=O)[C@H](CCC(=O)O)NC(=O)[C@H](CC(=O)O)NC(=O)CCC(=O)NCCCOCCOCCOCCCNC(=O)CCCC[C@@H]1SC[C@@H]2NC(=O)N[C@@H]21)[C@@H](C)O)C(=O)N[C@H](C(=O)N[C@@H](CCCCNC(C)=O)C(=O)N[C@H](C(=O)O)C(C)C)[C@@H](C)O` 0.90

====

System: 266 human PDZ domains (PDZome)
Assay: Holdup assay (chromatographic retention, PDZome-binding profile, BI)
Set-up: key: binding intensity: 0.00 = no binding, 1.00 = maximal binding
Settings: PDZ domain PTPN3-1
*1 amine or outer side, *2 acyl side, *3 side chain or, on linkers, in order; H or OH if unused. Where a SMILES comes first, the peptide text is derived from it. The star is where a group is joined. X1 = O=C(CCCC[C@@H]1SC[C@@H]2NC(=O)N[C@@H]21)NCCCOCCOCCOCCCN*; Suc = O=C(CCC(=O)[*:2])[*:1]
endpoint-label: BI
Could you respond with only the numeric value?

Item: CC[C@H](C)[C@H](NC(=O)[C@H](CCC(N)=O)NC(=O)[C@@H](NC(=O)[C@H](Cc1c[nH]cn1)NC(=O)[C@H](CCC(N)=O)NC(=O)[C@H](CC(=O)O)NC(=O)[C@H](CCC(=O)O)NC(=O)[C@H](CC(=O)O)NC(=O)CCC(=O)NCCCOCCOCCOCCCNC(=O)CCCC[C@@H]1SC[C@@H]2NC(=O)N[C@@H]21)[C@@H](C)O)C(=O)N[C@H](C(=O)N[C@@H](CCCCNC(C)=O)C(=O)N[C@H](C(=O)O)C(C)C)[C@@H](C)O [PTEN_Ac] Test system: 266 human PDZ domains (PDZome) Read-out: BI Value: ? 0.05

Item: CC[C@H](C)[C@H](NC(=O)[C@H](CCC(N)=O)NC(=O)[C@@H](NC(=O)[C@H](Cc1c[nH]cn1)NC(=O)[C@H](CCC(N)=O)NC(=O)[C@H](CC(=O)O)NC(=O)[C@H](CCC(=O)O)NC(=O)[C@H](CC(=O)O)NC(=O)CCC(=O)NCCCOCCOCCOCCCNC(=O)CCCC[C@@H]1SC[C@@H]2NC(=O)N[C@@H]21)[C@@H](C)O)C(=O)N[C@H](C(=O)N[C@@H](CCCNC(=N)N)C(=O)N[C@H](C(=O)O)C(C)C)[C@@H](C)O [PTEN_KR] ({X1-Suc}-DEDQHTQITRV-OH) Test system: 266 human PDZ domains (PDZome) Read-out: BI Value: ? 0.12

Item: CC[C@H](C)[C@H](NC(=O)[C@H](CCC(N)=O)NC(=O)[C@@H](NC(=O)[C@H](Cc1c[nH]cn1)NC(=O)[C@H](CCC(N)=O)NC(=O)[C@H](CC(=O)O)NC(=O)[C@H](CCC(=O)O)NC(=O)[C@H](CC(=O)O)NC(=O)[C@H](Cc1ccccc1)NC(=O)[C@@H]1CCCN1C(=O)CCC(=O)NCCCOCCOCCOCCCNC(=O)CCCC[C@@H]1SC[C@@H]2NC(=O)N[C@@H]21)[C@@H](C)O)C(=O)N[C@H](C(=O)N[C@@H](CCCCN)C(=O)N[C@H](C(=O)O)C(C)C)[C@@H](C)O [PTEN_13] ({X1-Suc}-PFDEDQHTQITKV-OH) Test system: 266 human PDZ domains (PDZome) Read-out: BI Value: ? 0.015

====

System: GRIP2-7
Experiment: Holdup assay, GRIP2-7
Assay type: binding, human
*1 amine or outer side, *2 acyl side, *3 side chain or, on linkers, in order; H or OH if unused. Where a SMILES comes first, the peptide text is derived from it. The star is where a group is joined. X1 = O=C(CCCC[C@@H]1SC[C@@H]2NC(=O)N[C@@H]21)NCCCOCCOCCOCCCN*; Suc = O=C(CCC(=O)[*:2])[*:1]
Would you mind telling me the reported BI of each entry?
Could you respond with only the numeric value?

State the recorded BI for this entry: CC[C@H](C)[C@H](NC(=O)[C@H](CCC(N)=O)NC(=O)[C@@H](NC(=O)[C@H](Cc1c[nH]cn1)NC(=O)[C@H](CCC(N)=O)NC(=O)[C@H](CC(=O)O)NC(=O)[C@H](CCC(=O)O)NC(=O)[C@H](CC(=O)O)NC(=O)CCC(=O)NCCCOCCOCCOCCCNC(=O)CCCC[C@@H]1SC[C@@H]2NC(=O)N[C@@H]21)[C@@H](C)O)C(=O)N[C@H](C(=O)N[C@@H](CCCNC(=N)N)C(=O)N[C@H](C(=O)O)C(C)C)[C@@H](C)O [PTEN_KR] ({X1-Suc}-DEDQHTQITRV-OH) -0.066

State the recorded BI for this entry: `CC[C@H](C)[C@H](NC(=O)[C@H](CCC(N)=O)NC(=O)[C@@H](NC(=O)[C@H](Cc1c[nH]cn1)NC(=O)[C@H](CCC(N)=O)NC(=O)[C@H](CC(=O)O)NC(=O)[C@H](CCC(=O)O)NC(=O)[C@H](CC(=O)O)NC(=O)CCC(=O)NCCCOCCOCCOCCCNC(=O)CCCC[C@@H]1SC[C@@H]2NC(=O)N[C@@H]21)[C@@H](C)O)C(=O)N[C@H](C(=O)N[C@@H](CCCCN)C(=O)N[C@H](C(=O)O)C(C)C)[C@@H](C)O` -0.067

State the recorded BI for this entry: CC[C@H](C)[C@H](NC(=O)[C@H](CCC(N)=O)NC(=O)[C@@H](NC(=O)[C@H](Cc1c[nH]cn1)NC(=O)[C@H](CCC(N)=O)NC(=O)[C@H](CC(=O)O)NC(=O)[C@H](CCC(=O)O)NC(=O)[C@H](CC(=O)O)NC(=O)[C@H](Cc1ccccc1)NC(=O)[C@@H]1CCCN1C(=O)CCC(=O)NCCCOCCOCCOCCCNC(=O)CCCC[C@@H]1SC[C@@H]2NC(=O)N[C@@H]21)[C@@H](C)O)C(=O)N[C@H](C(=O)N[C@@H](CCCCN)C(=O)N[C@H](C(=O)O)C(C)C)[C@@H](C)O [PTEN_13] ({X1-Suc}-PFDEDQHTQITKV-OH) -0.039

State the recorded BI for this entry: `CC[C@H](C)[C@H](NC(=O)[C@H](CCC(N)=O)NC(=O)[C@@H](NC(=O)[C@H](Cc1c[nH]cn1)NC(=O)[C@H](CCC(N)=O)NC(=O)[C@H](CC(=O)O)NC(=O)[C@H](CCC(=O)O)NC(=O)[C@H](CC(=O)O)NC(=O)CCC(=O)NCCCOCCOCCOCCCNC(=O)CCCC[C@@H]1SC[C@@H]2NC(=O)N[C@@H]21)[C@@H](C)O)C(=O)N[C@H](C(=O)N[C@@H](CCCCNC(C)=O)C(=O)N[C@H](C(=O)O)C(C)C)[C@@H](C)O` -0.07
